- PROTOCOL: Acute toxicity
- ASSAY_SETUP: mouse, in vivo; Intraperitoneal administration (ip), mice, 14th day
QUANTITY_KIND: LD50 at 336 h (mg/kg)
Respond with the bare value in mg/kg.

Use the examples below as a reference point.
Cl.NC1CCN(c2ccc3c(=O)c(C(=O)O)cn(-c4nccs4)c3n2)C1 (stereo not shown) : 55.2
CO[C@@H]1CN(c2ccc3c(=O)c(C(=O)O)cn(-c4nccs4)c3n2)C[C@H]1N (relative stereo) : 135
COc1cc([C@@H]2c3cc4c(cc3[C@@H](O[C@@H]3O[C@@H]5CO[C@@H](C)O[C@H]5[C@H](O)[C@H]3O)[C@H]3COC(=O)[C@H]23)OCO4)cc(OC)c1O [Compound H, Etoposide, reference compound] : 71

Consider the record given below.
[in] Consider the compound CN[C@@H]1CN(c2ccc3c(=O)c(C(=O)O)cn(-c4nccs4)c3n2)C[C@H]1OC.Cl (relative stereo) and give its measured LD50 at 336 h.
[out] 93.2

###

- Test system: murine P388 lymphocytic leukemia cells
- PROTOCOL: In vitro anti-tumor activity against murine P388 lymphocytic leukemia cells (MTT, 72 h)
- Assay type: cell-based
- ASSAY_SETUP: Mus musculus; murine P388 cells, 72 h, MTT; read-out: IC50 (50% proliferation inhibitory concentration)
Each record here notes measured IC50.
Respond with the bare value in µg/mL.

Use the examples below as a reference point.
Cl.NC1CCN(c2ccc3c(=O)c(C(=O)O)cn(-c4nc(F)cs4)c3n2)C1 (stereo not shown) : 0.00413
Cl.NC1CCN(c2ccc3c(=O)c(C(=O)O)cn(-c4nccs4)c3n2)C1 (stereo not shown) : 0.0103
CC1(N)CCN(c2ccc3c(=O)c(C(=O)O)cn(-c4nccs4)c3n2)C1 (stereo not shown) : 0.0192
O=C(O)c1cn(-c2nccs2)c2nc(N3CCCC3)c(F)cc2c1=O [Compound A, reference compound] : 0.0942
CO[C@@H]1CN(c2ccc3c(=O)c(C(=O)O)cn(-c4nccs4)c3n2)C[C@H]1N (relative stereo) : 0.0178
CN[C@@H]1CN(c2ccc3c(=O)c(C(=O)O)cn(-c4nccs4)c3n2)C[C@H]1OC.Cl (relative stereo) [Compound 1-1] : 0.0107

[in] Request - read-out IC50 | tested on murine P388 lymphocytic leukemia cells | compound C[C@@H]1CN(c2ccc3c(=O)c(C(=O)O)cn(-c4nccs4)c3n2)C[C@@]1(C)N (relative stereo)
[out] 0.0195

###

Each record here notes measured LD50 at 336 h.
- PROTOCOL: Acute toxicity
- ASSAY_SETUP: mouse, in vivo; Intravenous administration (iv), mice, 14th day
Respond with the bare value in mg/kg.

Use the examples below as a reference point.
CN[C@@H]1CN(c2ccc3c(=O)c(C(=O)O)cn(-c4nccs4)c3n2)C[C@H]1C (relative stereo) : 66.7
Cl.NC1CCN(c2ccc3c(=O)c(C(=O)O)cn(-c4nccs4)c3n2)C1 (stereo not shown) : 119

Consider the record given below.
[in] Consider the compound COc1cc([C@@H]2c3cc4c(cc3[C@@H](O[C@@H]3O[C@@H]5CO[C@@H](C)O[C@H]5[C@H](O)[C@H]3O)[C@H]3COC(=O)[C@H]23)OCO4)cc(OC)c1O [Compound H, Etoposide, reference compound] and give its measured LD50 at 336 h.
[out] 123
